# procedure.text: PSAC antagonists in infected red cells, primary screen, cell-based, P. falciparum Indochina, OD700, 2 h (AID 1155);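 note: lysis reports solute entry through the parasite surface anion channel PSAC; channel blockers reduce lysis of infected cells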
# experimental.conditions: P. falciparum Indochina infected erythrocytes, osmotic lysis OD700, called active from +8 up or from −8 down
The source made the active and inactive calls.
Response enum: active, inactive

Field: example entries. Status: answers known.
molecule: CCOC(=O)C[C@H]1[C@H](OC(=O)c2ccccc2-c2ccccc2)[C@@H](NC(=O)c2ccc(-c3ccccc3)cc2)c2cc(OCCCO)ccc2N1C(=O)Cc1ccc(OC)cc1
group: inactive
--
molecule: COc1cc2c(cc1OC)CN(C(=O)[C@@H]1[C@H]3C(=O)O[C@H](c4ccccc4)[C@H](c4ccccc4)N3[C@H](c3ccccc3OCCO)[C@@]13C(=O)Nc1ccccc13)CC2
group: inactive
--
molecule: CC(C)NC(=O)[C@@]1(Cc2ccccc2I)c2ccccc2C(=O)N(C2CCCCC2)[C@H]1c1ccc(CO)cc1
group: inactive
--
molecule: Cc1ccc(S[C@]2(C(=O)NC(C)C)CC(=O)N(Cc3cc(C(F)(F)F)cc(C(F)(F)F)c3)[C@@H]2c2ccc(CO)cc2I)cc1
group: inactive

Query: Hi, do you know how CC(C)[C@H]1NC(=O)[C@@]23C(=O)N[C@@H](Cc4ccccc4)C2[C@H](C)[C@@]2(C)O[C@H]2C3/C=C/C/C=C\CNC(=O)[C@H](C)NC1=O (stereo partly specified) came out in this test?
Response: inactive

Query: For COC(=O)[C@@]1(Cc2ccccc2CN=[N+]=[N-])N=C(c2ccc(OCCCO)cc2)O[C@H]1c1ccccc1N=[N+]=[N-] , what call appears in the results of this test?
Response: active

* * *

# procedure.text: fission yeast growth modulation, primary screen, strain 972, OD600, 24 h, no modulator (AID 1090);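 note: basal condition with compound alone and no growth modifier present; test concentration not given here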
# experimental.conditions: S. pombe 972 growth, higher = more signal, called active from +8 up or from −8 down
z-score values for the compounds below.
Simply state the number, no unit and no words.

smi: CCN1C(C)=C(C(=O)OC)[C@@H](c2ccccc2)N2C(=O)[C@@]3(C(=O)OC)O[C@@]12[C@@H]1C(=O)N(c2ccccc2)C(=O)[C@@H]13
z-score: -1.23
--
smi: O=C(NCc1ccccc1)c1ccc(Br)cc1[N+](=O)[O-]
z-score: -1.08

Entry C[C@]1(C(=O)NCc2ccccc2)c2ccccc2C(=O)N(Cc2cc(C(F)(F)F)cc(C(F)(F)F)c2)[C@H]1c1ccc(CO)cc1 — recorded z-score = -3.22

Note to self: z-score recorded for CO[C@@H]1COC(=O)[C@H](COCc2ccccc2)NC(=O)CC=C[C@@H](C)[C@H](OC)COC(=O)[C@H](COCc2ccccc2)NC(=O)CC=C[C@H]1C was -0.371

The recorded z-score for entry NC(=O)NCC#Cc1ccc2c(c1)[C@]1(C(=O)N2)[C@H](c2ccccc2OCCO)N2[C@H](c3ccccc3)[C@H](c3ccccc3)OC(=O)[C@H]2[C@@H]1C(=O)N1CCN(c2ncccn2)CC1 equals 0.0422

// sample C=CC[C@@]12N=C(c3ccc(OCCCO)cc3)O[C@@H]1c1ccccc1CN(Cc1ccccc1)C2=O , its z-score was -3.56

Notebook: O=C1O[C@H](c2ccccc2)[C@H](c2ccccc2)N2[C@H]1[C@@H](C(=O)Nc1nc3ccccc3s1)[C@]1(C(=O)Nc3ccc(C#CC4=CCCCC4)cc31)[C@H]2c1ccccc1OCCO , z-score read as 1.82

z-score for CCCN1C(=O)[C@@]2(CCS(=O)(=O)c3ccccc3)N=C(c3ccc(OCCCO)cc3)O[C@H]2c2ccccc21 is 0.69

Briefly, z-score measured for Cc1ccc(N2C(=O)c3ccccc3[C@@H](C(=O)NCc3ccccc3)[C@@H]2c2ccc(CO)cc2)nc1 : -0.242

Measured z-score, CC(C)[Si](OCC[C@H]1O[C@]2(C(=O)N(Cc3ccccc3)c3ccccc32)[C@@H](C)[C@@H]1[Si](C)(C)O)(C(C)C)C(C)C : -0.259

* * *

# procedure.text: binders of probe aFSTL3 on microarray, primary screen, stem cell growth factor project, biochemical, small-molecule microarray, fluorescence 635/667 (AID 1064);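 note: measures binding of the biotinylated anti-FSTL3 antibody to printed compounds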
# experimental.conditions: higher = more signal
readout.kind: composite z-score
Lab note: write the figure by itself, no unit.

smi: COCCCNC(=O)[C@@]1(Sc2ccc(C)cc2)CC(=O)N(Cc2cc(C(F)(F)F)cc(C(F)(F)F)c2)[C@@H]1c1ccc(CO)cc1I
assay.result: 1.12

Memo: CO[C@H]1O[C@H](CO)[C@@H](OC(=O)CCc2ccccc2)[C@@H]2OC(=O)[C@H](Cc3cccc(Br)c3)C/C=C/C[C@@H](Cc3cccc(Br)c3)C(=O)O[C@@H]12 , reported composite z-score: 0.617

The value of composite z-score measured for the molecule CCN1C(C)=C(C(=O)OC)[C@@H](c2ccccc2)N2C(=O)[C@@]3(C(=O)OC)O[C@@]12[C@@H]1C(=O)N(c2ccccc2)C(=O)[C@@H]13 turned out to be -0.418

* * *

# subject.of.test: NADPH oxidase 2 (Homo sapiens) (UniProt P04839)
# Sequence (P04839 whole entry, looked up): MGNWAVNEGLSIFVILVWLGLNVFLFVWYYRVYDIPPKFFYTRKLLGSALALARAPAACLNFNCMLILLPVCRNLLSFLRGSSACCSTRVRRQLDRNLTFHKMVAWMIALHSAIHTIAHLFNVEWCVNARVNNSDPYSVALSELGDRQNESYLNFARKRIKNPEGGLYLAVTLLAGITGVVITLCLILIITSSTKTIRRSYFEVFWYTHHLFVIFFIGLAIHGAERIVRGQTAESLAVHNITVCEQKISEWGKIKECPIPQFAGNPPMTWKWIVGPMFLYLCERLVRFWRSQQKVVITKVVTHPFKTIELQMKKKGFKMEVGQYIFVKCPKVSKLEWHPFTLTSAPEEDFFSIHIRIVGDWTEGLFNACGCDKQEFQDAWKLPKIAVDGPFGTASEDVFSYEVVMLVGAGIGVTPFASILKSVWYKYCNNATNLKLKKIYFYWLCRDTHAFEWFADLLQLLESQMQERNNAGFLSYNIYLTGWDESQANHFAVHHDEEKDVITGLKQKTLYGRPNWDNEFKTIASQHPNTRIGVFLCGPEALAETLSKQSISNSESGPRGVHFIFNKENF
# procedure.text: NOX2-dependent H2O2 signal modulators, primary screen, NOX inhibitor project, cell-based, HEK293-NOX2, PMA-stimulated, Amplex Red fluorescence (AID 1159); note: test concentration not given here
# experimental.conditions: 45 min, higher = more signal, called active from +8 up or from −8 down
readout.kind: z-score
Output spec: single numeric token, no unit.

Observe how each entry below is paired with its result.
compound: CO[C@H]1O[C@H](CO)[C@@H](OC(=O)Nc2ccc3c(c2)OCO3)[C@H](OC(=O)Nc2ccccc2)[C@@H]1OC(=O)Nc1ccccc1
z-score: 1.07

compound: COc1ccc(C(O)C2C=CC3C(=O)N(C)C(=O)C3N2N2CCCCC2)cc1OCc1ccccc1 (centres undefined)
z-score: 0.0637

compound: CCCNC(=O)[C@@H]1c2ccccc2C(=O)N(C2CCCCC2)[C@H]1c1ccc(CO)cc1
z-score: 0.747

get_value(item= O=C(NCc1ccccc1)[C@@]1(CCS(=O)(=O)c2ccccc2)COC(c2ccc(OCCCO)cc2)=N1 , readout=z-score) returns -2.26

* * *

# Test system: Sonic hedgehog protein (Shh)
# procedure.text: small-molecule binders of Shh protein, primary screen, biochemical, small-molecule microarray, 635/667 nm fluorescence (AID 1151);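 note: Shh protein binding to compounds spotted on small-molecule microarray slides; score combines spot fluorescence intensity with signal-to-noise across triplicate slides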
# experimental.conditions: small-molecule microarray binding, 635 nm fluorescence; higher = more signal
Outcome: label 1 for composite z-score of at least 1; label 0 for anything lower.

Record excerpt, results attached:
compound: O=C1C2C=CC(C(O)Cc3ccccc3)N(Nc3ccc([N+](=O)[O-])cc3)C2C(=O)N1c1ccccc1 (centres undefined)
group: label 0
//
compound: CCOC(=O)C1=C[C@@H](c2ccccc2)N(S(=O)(=O)c2ccc(C)cc2)[C@H]1c1ccc(F)cc1
group: label 0

Query: API: above_or_equal(metric=composite z-score, cutoff=1) for item C[N+](C)(C)CCCCNC(=O)[C@@H]1C[C@@H]2C(=O)N3CCC[C@H]3C(=O)N2[C@@H]1c1cccc(OCCO)c1
Response: label 1

Query: # bool: composite z-score of Cc1ccccc1C(O)C1C=CC2C(=O)N(c3ccccc3)C(=O)C2N1Nc1ccc(C#N)cc1 (centres undefined) >= 1
Response: label 0

Query: Could you tell me if the measured composite z-score of CCCCO[C@H]1C[C@H]2C(Br)=C[C@@]1(CO)C(=O)[C@]21CO1 reaches 1 or more?
Response: label 0

Query: # bool: composite z-score of COc1ccc(NN2C(C(O)c3cc(OC)c(OC)c(OC)c3)C=CC3C(=O)N(C4CCCCC4)C(=O)C32)cc1 (centres undefined) >= 1
Response: label 0

* * *

# procedure.text: A549 lung cancer cell viability effects, profiling panel, resazurin fluorescence, 24 h, PK04 Diversity Set (AID 1171); note: test concentration not given here
# experimental.conditions: higher = more signal, called active from +8 up or from −8 down
readout.kind: z-score
Number only, no unit.

Past entries and their recorded results:
molecule: CCCN1C(=O)[C@@]2(CCS(=O)(=O)c3ccccc3)N=C(c3ccc(OCCCO)cc3)O[C@H]2c2ccccc21
z-score: -1.33
--
molecule: [N-]=[N+]=NCc1ccccc1C[C@@]1(C(=O)O)N=C(c2ccc(OCCCO)cc2)O[C@@H]1c1ccccc1N=[N+]=[N-]
z-score: -1.32
--
molecule: CCOC(=O)C1=CC[C@@H](c2ccc(-c3ccc(OCc4ccccc4)cc3)c(OC)c2)N(S(=O)(=O)c2ccc(C)cc2)[C@H]1c1ccccc1
z-score: 0.751
--
molecule: COc1ccc(CCNC(=O)[C@@]2(c3ccc([N+](=O)[O-])cc3)CC(=O)N(C(C)C)[C@@H]2c2ccc(CO)cc2)cc1
z-score: 0.1
--
molecule: O=C1c2ccccc2[C@](Cc2ccccc2I)(C(=O)NCC(F)(F)F)[C@H](c2ccc(CO)cc2)N1Cc1ccccc1C(F)(F)F
z-score: 1.32

Note to self: z-score recorded for CCOC(=O)C[C@H]1[C@H](OC(=O)Cc2ccc3c(c2)OCO3)[C@@H](NC(=O)c2ccc3ccccc3c2)c2cc(OCCCO)ccc2N1C(=O)Cc1ccc(OC)cc1 was -0.654

The molecule CCN1C(C)=C(C(=O)OC)[C@@H](c2ccccc2)N2C(=O)[C@@]3(C(=O)OC)O[C@@]12[C@@H]1C(=O)N(C)C(=O)[C@@H]13 showed z-score equal to 0.363

Entry O=C(CS)NCCCCCCNC(=O)[C@@H]1C[C@@H]2C(=O)N[C@@H](Cc3ccccc3)C(=O)N2[C@@H]1c1ccc(O)cc1 ; z-score = -0.226

Item: COCCOC(=O)N1C(=O)[C@@]2(c3cc(C#CC4=CCCCC4)ccc31)[C@H](C(=O)NC[C@H](O)c1ccccc1)[C@H]1C(=O)O[C@H](c3ccccc3)[C@H](c3ccccc3)N1[C@@H]2c1ccc(OCCO)cc1 | z-score: -0.355

Value of z-score reported for the molecule CCCC=C(CCC)[C@@H](NC(=O)c1ccc(C(F)(F)F)cc1)c1ccccc1 is -0.396

Value of z-score reported for the molecule COc1cc(CO)cc(I)c1O[C@H]1C=C(C(=O)NCCO)C[C@@H](NCCc2c[nH]c3ccccc23)[C@@H]1O is 0.279

// recorded z-score for COCCOC(=O)N1C(=O)[C@@]2(c3cc(C#CCNC(N)=O)ccc31)[C@H](c1ccc(OCCO)cc1)N1[C@H](c3ccccc3)[C@H](c3ccccc3)OC(=O)[C@H]1[C@@H]2C(=O)N1CCCCCCC1 : 0.643

For this molecule ( CO[C@H]1COC(=O)CC=C[C@@H](C)COC(=O)[C@@H](C)NC(=O)CC=C[C@@H]1C ), measured z-score is 0.372

Reported z-score of CN1C(=O)C2C=CC(C(O)C3CC=CCC3)N(Nc3ccccc3)C2C1=O (stereo not given) : -0.293

Short answer for Cc1ccc(S[C@]2(C(=O)NC3CC3)CC(=O)N(Cc3cc(C(F)(F)F)cc(C(F)(F)F)c3)[C@@H]2c2ccc(CO)cc2)cc1 : z-score was 0.968

In plain terms, O=C1c2ccccc2[C@](Cc2ccccc2I)(C(=O)O)[C@H](c2ccc(CO)cc2)N1C1CCCCC1 has a documented z-score of 1.07

# z-score of CCN1C(C)=C(C(=O)OC)[C@@H](c2ccccc2)N2C(=O)[C@@]3(C(=O)OC)O[C@@]12[C@@H]1C(=O)CCC[C@@H]13 = 0.282

The value of z-score measured for the molecule CC(c1ccccc1)C(O)C1C=CC2C(=O)N(C)C(=O)C2N1N(c1ccccc1)c1ccccc1 (stereo not given) turned out to be -0.346

Reported z-score for O=C(NCC(F)(F)F)[C@@H]1c2ccccc2C(=O)N(Cc2ccccc2Cl)[C@H]1c1ccc(CO)cc1 was 1.26

Record CO[C@H]1COC(=O)[C@@H](OCc2ccccc2)C=C[C@H](C)[C@@H](OC)COC(=O)[C@H](OCc2ccccc2)C=C[C@@H]1C , field z-score: 1.76

Input C=CCc1cccc([C@@H]2[C@@H](C)CC[C@H]3C(=O)N4[C@H](c5cccc(CC=C)c5)[C@@H](C)CC[C@H]4C(=O)N23)c1 . Output z-score: 3.27

# credit: PubChem BioAssay
